Experiment: in vitro
Settings: human, hek293t cells
Mark 1.0 only for viability at 48 h, 25 µM values smaller than 2%; exact matches and larger values are 0.0.

molecule	class
C=CC(=O)N(C)CC(=O)N1CCN(c2nsc3ccccc23)CC1	1.0
C=CC(=O)N(C)C1CCN(c2cnccn2)CC1	0.0
CC(Cl)C(=O)Nc1sc(-c2ccccc2)cc1C(N)=O (stereo not drawn)	0.0
CC(Cl)C(=O)N1CCn2c(C#N)ccc2C1C (stereo not drawn)	0.0
N#Cc1cc([N+](=O)[O-])ccc1NC(=O)CCl	1.0
Cc1cc(C)n(CC2CCN(C(=O)C(C)Cl)CC2)n1 (stereo not drawn)	0.0
Cc1cc(C=C(C#N)C(=O)NCc2ccco2)cc(C)c1O	0.0
O=C(CCl)NCC(=O)N(c1ccccc1)c1ccccc1	1.0

I'd appreciate it if you could check whether COc1ccc(C(=O)C(C)Cl)cc1 (stereo not drawn) has viability at 48 h, 25 µM smaller than 2%.
0.0

I'd appreciate it if you could check whether COc1ccc(C=C(C#N)C(=O)Nc2ccccc2OC)cc1 has viability at 48 h, 25 µM smaller than 2%.
0.0
